# system: IDH (endogenous IDH1 R132C) in HT1080 cell (Homo sapiens, UniProt O75874, R132C)
# Construct: which harbor endogenous heterozygous IDH1 R132C and R132H mutation respectively and accumulate D-2-HG
# Sequence (O75874 2-414 R132C): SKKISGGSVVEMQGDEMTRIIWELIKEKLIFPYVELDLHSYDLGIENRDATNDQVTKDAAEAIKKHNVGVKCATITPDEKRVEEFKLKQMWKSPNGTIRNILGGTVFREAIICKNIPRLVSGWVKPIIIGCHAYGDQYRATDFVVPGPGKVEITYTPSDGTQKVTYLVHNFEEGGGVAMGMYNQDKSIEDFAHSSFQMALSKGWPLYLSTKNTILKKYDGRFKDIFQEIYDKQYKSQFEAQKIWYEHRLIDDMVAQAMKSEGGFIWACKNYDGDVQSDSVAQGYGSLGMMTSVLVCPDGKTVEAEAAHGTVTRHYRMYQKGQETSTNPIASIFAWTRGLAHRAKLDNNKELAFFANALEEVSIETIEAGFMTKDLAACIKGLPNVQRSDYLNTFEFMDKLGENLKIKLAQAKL
# protocol.text: Cell-based assay for IDH inhibition (decrease of D-2-HG) in HT1080 cells
# details: human fibrosarcoma cell line HT1080, 16 hours treatment, D-2-HG by LC-MS, in triplet
pIC50: −log10 of the molar value.
measured.quantity: pIC50

>>> result("CCN1Cc2c(ccnc2N[C@@H](C)c2ccc(-c3ccc(F)c(C)c3)c(F)c2)C1=O [Compound 81]")
"< 6.00"
>>> result("CCN1Cc2c(ccnc2N[C@@H](C)c2ccc(OC3CCc4ccccc43)c(F)c2)C1=O (some centres unmarked) [Compound 6]")
"< 6.00"

Qu. Report pIC50 for C[C@H](Nc1nccc2c1CN([C@H](C)CF)C2=O)c1ccc(-c2ccnc(C(C)(C)C)c2)c(F)c1 [Compound 40] please.
Ans. 6.30 to 7.00

Qu. Report pIC50 for CCN1Cc2c(ccnc2N[C@@H](C)c2ccc(Oc3ccc4c(ccn4C(C)C)c3)c(F)c2)C1=O [Compound 9] please.
Ans. 6.30 to 7.00
